- experiment.summary: Terminal half life in human
- Assay type: ADME
- conditions: read-out: beta t1/2 (converted)
molecules and their reported half-life
Note: unit h is implicit; provide only the numeric part.

* CN[C@H](CC(C)C)C(=O)N[C@H]1C(=O)N[C@@H](CC(N)=O)C(=O)N[C@H]2C(=O)N[C@H]3C(=O)N[C@H](C(=O)N[C@H](C(=O)O)c4cc(O)cc(O)c4-c4cc3ccc4O)[C@H](O[C@H]3C[C@](C)(N)[C@@H](O)[C@H](C)O3)c3ccc(c(Cl)c3)Oc3cc2cc(c3O[C@@H]2O[C@H](CO)[C@@H](O)[C@H](O)[C@H]2O[C@H]2C[C@](C)(NCc3ccc(-c4ccc(Cl)cc4)cc3)[C@@H](O)[C@H](C)O2)Oc2ccc(cc2Cl)[C@H]1O | 195

**Q:** Could you share which half-life value was measured for CN[C@H](CC(C)C)C(=O)N[C@H]1C(=O)N[C@@H](CC(N)=O)C(=O)N[C@H]2C(=O)N[C@H]3C(=O)N[C@H](C(=O)N[C@H](C(=O)O)c4cc(O)cc(O)c4-c4cc3ccc4O)[C@H](O)c3ccc(c(Cl)c3)Oc3cc2cc(c3O[C@@H]2O[C@H](CO)[C@@H](O)[C@H](O)[C@H]2O[C@H]2C[C@](C)(N)[C@H](O)[C@H](C)O2)Oc2ccc(cc2Cl)[C@H]1O ?
**A:** 6
